Recorded log10(IC50), one value per entry.
- assayed-target: human V1a receptor (Homo sapiens, UniProt P37288)
- Sequence (P37288 whole entry): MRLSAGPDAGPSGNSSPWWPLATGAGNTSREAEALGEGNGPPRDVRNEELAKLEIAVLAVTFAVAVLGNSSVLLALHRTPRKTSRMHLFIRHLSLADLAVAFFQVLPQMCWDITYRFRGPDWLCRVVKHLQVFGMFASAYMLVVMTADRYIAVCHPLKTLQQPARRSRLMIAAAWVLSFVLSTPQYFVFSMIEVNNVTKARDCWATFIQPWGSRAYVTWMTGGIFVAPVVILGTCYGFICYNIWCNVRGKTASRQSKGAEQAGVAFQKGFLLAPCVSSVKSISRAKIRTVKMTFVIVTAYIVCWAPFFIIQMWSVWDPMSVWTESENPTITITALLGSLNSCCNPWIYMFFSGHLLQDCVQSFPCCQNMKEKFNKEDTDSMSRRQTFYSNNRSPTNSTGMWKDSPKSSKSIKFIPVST
- assay-explanation: V1a binding assay (3H-AVP displacement, HEK-293 membranes)
- Set-up: expressed in transfected cells; host or cells: HEK-293 (membranes)
Kindly note that the scale is log10 and the underlying IC50 is in nM.

compound | assay-endpoint | endpoint-result
O=c1n(CCCO)c2ccccc2n1C1CCN(C(=S)NC(c2ccccc2)c2ccccc2)CC1 [Compound 108] | log10(IC50) | 2.76
CC(CN1CCCC1)Cn1c(=O)n(C2CCN(C(=S)NC(c3ccccc3)c3ccccc3)CC2)c2ccccc21 (stereo not drawn) [Compound 148] | log10(IC50) | 1.72
CC(NC(=O)N1CCC(n2c(=O)[nH]c3ccccc32)CC1)c1cccc2ccccc12 (stereo in doubt) [Compound 7] | log10(IC50) | 3.96

Notebook: Cc1ccccc1NC(=S)N1CCC(n2c(=O)n(CCCN3CCCCC3)c3ccccc32)CC1 [Compound 109] , log10(IC50) read as 1.75

Notebook: O=c1n(CCCN2CCCCC2)c2ccccc2n1C1CCN(C(=S)N[C@]23C[C@H]4C[C@H](C[C@H](C4)C2)C3)CC1 [Compound 129] , log10(IC50) read as 1.86

Notebook: O=C(NC1c2ccccc2-c2ccccc21)N1CCC(n2c(=O)n(CCCN3CCCCC3)c3ccccc32)CC1 [Compound 152] , log10(IC50) read as 2.36

Notebook: O=c1n(CCCN2CCCCC2)c2ccccc2n1C1CCN(C(=S)NC2CCCCC2)CC1 [Compound 125] , log10(IC50) read as 2.59

Notebook: O=c1n(CCCN2CCCCC2)c2ccccc2n1C1CCN(C(=S)NCc2ccc(Cl)cc2)CC1 [Compound 124] , log10(IC50) read as 1.46

* * *

- assayed-target: NPY2 receptors (Homo sapiens, UniProt P49146)
- Construct: Cell Membranes from KAN-TS cells having NPY2 receptors; endogenous in cells; host or cells: KAN-TS cells (membranes)
- Sequence (P49146 1-381): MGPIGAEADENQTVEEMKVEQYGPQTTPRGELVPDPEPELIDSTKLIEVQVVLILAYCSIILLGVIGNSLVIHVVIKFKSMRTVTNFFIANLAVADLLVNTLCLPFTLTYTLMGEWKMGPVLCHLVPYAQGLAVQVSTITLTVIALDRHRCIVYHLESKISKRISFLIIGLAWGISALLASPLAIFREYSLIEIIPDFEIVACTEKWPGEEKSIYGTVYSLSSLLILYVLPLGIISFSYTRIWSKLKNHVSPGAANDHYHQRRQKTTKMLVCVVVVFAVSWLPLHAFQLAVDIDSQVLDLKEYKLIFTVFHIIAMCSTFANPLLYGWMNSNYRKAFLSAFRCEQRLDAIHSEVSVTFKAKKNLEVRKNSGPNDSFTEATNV
- assay-explanation: Neuropeptide Y receptor binding assay (125I-PYY, KAN-TS cell membranes)
- experimental-conditions: 10 μM compound; read-out: NPY-2@10, % Inh
assay-endpoint: inhibition at 10 µM (%)
I only need the number, in %, no unit after it.

Here's what some known entries look like.
compound | assayed-target | unit-abbreviation | inhibition at 10 µM
C[C@H](NC(=S)N1CCC(n2c(=O)n(CCCN3CCCCC3)c3ccccc32)CC1)c1ccccc1 | NPY2 receptors (Homo sapiens, UniProt P49146) | % | 25
CCN(CC)CCn1c(=O)n(C2CCN(C(=S)NC(Cc3ccccc3)C(=O)OC)CC2)c2ccccc21 (stereo not shown) | NPY2 receptors (Homo sapiens, UniProt P49146) | % | 10
O=c1n(CCCO)c2ccccc2n1C1CCN(C(=S)NC(c2ccccc2)c2ccccc2)CC1 | NPY2 receptors (Homo sapiens, UniProt P49146) | % | 41

Turning now to a further record.
Notebook: CCc1ccc(CCNC(=S)N2CCC(n3c(=O)[nH]c4ccccc43)CC2)cc1 , inhibition at 10 µM read as 13

* * *

Recorded pIC50, one value per entry.
- assayed-target: human V2 receptor (Homo sapiens)
- Sequence (P30518 whole entry): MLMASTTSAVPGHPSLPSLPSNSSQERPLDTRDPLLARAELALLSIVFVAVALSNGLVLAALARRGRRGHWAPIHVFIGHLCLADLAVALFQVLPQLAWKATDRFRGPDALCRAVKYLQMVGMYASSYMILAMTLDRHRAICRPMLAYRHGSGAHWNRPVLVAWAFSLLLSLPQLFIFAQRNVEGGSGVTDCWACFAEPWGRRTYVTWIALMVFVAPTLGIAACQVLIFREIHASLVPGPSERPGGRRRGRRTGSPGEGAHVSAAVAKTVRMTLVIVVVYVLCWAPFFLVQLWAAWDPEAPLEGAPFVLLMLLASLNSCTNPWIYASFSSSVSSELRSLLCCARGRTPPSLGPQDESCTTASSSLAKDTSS
- assay-explanation: V2 functional assay, cAMP accumulation in transfected HEK-293 cells
- Type: cell-based
- Parameters: expressed in transfected cells; host or cells: HEK-293
- experimental-conditions: AVP 1 nM; read-out: Cell-Based Functional activity V2 IC50
Counter-ions that a name gives are not always drawn.
pIC50 here is simply -log10 of the concentration when that concentration is written in mol/L.

compound | assay-endpoint | endpoint-result
CCN(CC)CCn1c(=O)n(C2CCN(C(=S)NC(c3ccccc3)c3ccccc3)CC2)c2ccccc21 | pIC50 | 6.21

Turning now to a further record.
Notebook: NCCCn1c(=O)n(C2CCN(C(=S)NC(c3ccccc3)c3ccccc3)CC2)c2ccccc21 [Compound 55, Monohydrochloride] , pIC50 read as 4.64

* * *

- assayed-target: human V1a receptor (Homo sapiens)
- assay-explanation: V1a binding assay (3H-AVP displacement, HEK-293 membranes)
- Design: expressed in transfected cells; host or cells: HEK-293 (membranes)
Counter-ions that a name gives are not always drawn.
assay-endpoint: IC50 (nM)
I only need the number, in nM, no unit after it.

Here's what some known entries look like.
compound | unit-abbreviation | endpoint-result
Cn1c(=O)n(C2CCN(C(=S)NC(c3ccccc3)c3ccccc3)CC2)c2ccccc21 [Compound 10] | nM | 380
N=C(N)NCCCn1c(=O)n(C2CCN(C(=S)NC(c3ccccc3)c3ccccc3)CC2)c2ccccc21 [Compound 59] | nM | 32
CC1CCCCN1CCCn1c(=O)n(C2CCN(C(=S)NC(c3ccccc3)c3ccccc3)CC2)c2ccccc21 (stereo not shown) [Compound 181] | nM | 23

Notebook: NCCCn1c(=O)n(C2CCN(C(=S)NC(c3ccccc3)c3ccccc3)CC2)c2ccccc21 [Compound 55, Monohydrochloride] , IC50 read as 27

* * *

- assayed-target: human V1a receptor (Homo sapiens, UniProt P37288)
- assay-explanation: V1a binding assay (3H-AVP displacement, HEK-293 membranes)
- Design: expressed in transfected cells; host or cells: HEK-293 (membranes)
- experimental-conditions: 1.0 μM compound; read-out: V1a@1.0, % Inh
assay-endpoint: inhibition at 1 µM (%)
I only need the number, in %, no unit after it.

Here's what some known entries look like.
compound | assayed-target | inhibition at 1 µM, %
CC(CN1CCCCC1)Cn1c(=O)n(C2CCN(C(=S)NC(c3ccccc3)c3ccccc3)CC2)c2ccccc21 (stereo not shown) | human V1a receptor (Homo sapiens, UniProt P37288) | 85
CN1CCN(C(=O)C(Cc2ccccc2)NC(=S)N2CCC(n3c(=O)[nH]c4ccccc43)CC2)CC1 (stereo not shown) | human V1a receptor (Homo sapiens, UniProt P37288) | 54
O=C(NC(=S)N1CCC(n2c(=O)[nH]c3ccccc32)CC1)c1ccccc1 | human V1a receptor (Homo sapiens, UniProt P37288) | 55

Notebook: CN(C)c1ccc(CNC(=S)N2CCC(n3c(=O)[nH]c4ccccc43)CC2)cc1 , inhibition at 1 µM read as 19

* * *

- assayed-target: human V1b receptor (Homo sapiens)
- Sequence (P47901 1-424): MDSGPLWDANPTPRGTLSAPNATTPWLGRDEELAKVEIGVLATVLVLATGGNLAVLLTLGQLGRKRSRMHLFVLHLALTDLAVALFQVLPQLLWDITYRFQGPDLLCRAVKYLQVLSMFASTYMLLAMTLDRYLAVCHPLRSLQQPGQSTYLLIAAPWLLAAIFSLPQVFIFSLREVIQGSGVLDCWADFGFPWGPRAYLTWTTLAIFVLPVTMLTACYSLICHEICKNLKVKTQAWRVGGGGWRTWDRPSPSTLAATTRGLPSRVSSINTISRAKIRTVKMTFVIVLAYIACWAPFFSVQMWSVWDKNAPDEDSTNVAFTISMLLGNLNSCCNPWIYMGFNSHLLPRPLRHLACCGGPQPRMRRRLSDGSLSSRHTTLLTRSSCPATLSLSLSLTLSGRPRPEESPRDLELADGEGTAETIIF
- assay-explanation: V1b binding assay (3H-AVP displacement, HEK-293 membranes)
- Set-up: expressed in transfected cells; host or cells: HEK-293 (membranes)
- experimental-conditions: 1.0 μM compound; read-out: V1b@1.0, % Inh
Recorded inhibition at 1 µM, one value per entry.
I only need the number, in %, no unit after it.

structure | inhibition at 1 µM (%)
O=c1n(CCCN2CCCCC2)c2ccccc2n1C1CCN(C(=S)NCc2ccc(Cl)cc2)CC1 | 44
CC(C)N(CCCn1c(=O)n(C2CCN(C(=S)NC(c3ccccc3)c3ccccc3)CC2)c2ccccc21)C1CCCCC1 | 31
CCCc1ccccc1NC(=O)N1CCC(n2c(=O)n(CCCN3CCCCC3)c3ccccc32)CC1 | 43
O=c1n(CCCCN2CCCCC2)c2ccccc2n1C1CCN(C(=S)NC(c2ccccc2)c2ccccc2)CC1 | 45
CCN(CCCn1c(=O)n(C2CCN(C(=S)NC(c3ccccc3)c3ccccc3)CC2)c2ccccc21)C1CCCCC1 | 65
CC1CCN(CCCn2c(=O)n(C3CCN(C(=S)NC(c4ccccc4)c4ccccc4)CC3)c3ccccc32)CC1 | 47

Notebook: O=c1n(CCCN2CCCCC2)c2ccccc2n1C1CCN(C(=S)NCc2ccccc2)CC1 , inhibition at 1 µM read as 30

Notebook: CC(C)(C)NC(=S)N1CCC(n2c(=O)n(CCCN3CCCCC3)c3ccccc32)CC1 , inhibition at 1 µM read as 26

Notebook: CC(C)c1ccccc1NC(=S)N1CCC(n2c(=O)n(CCCN3CCCCC3)c3ccccc32)CC1 , inhibition at 1 µM read as 55
